All figures here come from paper PMC10033678.

Target: TbRAP1 639-733 (RRM) (Trypanosoma brucei) (UniProt C1JEX5)
Sequence: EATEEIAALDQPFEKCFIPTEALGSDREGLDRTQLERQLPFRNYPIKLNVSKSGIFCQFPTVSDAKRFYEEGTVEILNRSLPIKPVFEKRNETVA
Assay: fluorescence polarization
Conditions: EMSA: 20 mM HEPES pH 7.9, 235 mM KCl, 1 mM MgCl2, 0.1 mM EDTA, 100 ng/ul BSA, 5% glycerol, 1 mM DTT, room temp 30 min; FP: 20 mM sodium phosphate pH 7.0, 50 mM …
pKd: −log10 of the molar value.
value-kind: pKd

> print(dat)
                      monomer.sequence  value.kind  experimental.result
1  UGAUAUAUUUUAACAC [6-FAM-16-VSG-UTR]         pKd                 3.03
